Reported IC50 values follow for various molecules
Tested on: K562 (chronic myelogenous leukaemia)
Experiment: Effect of compounds on tumor cell lines (assay of Latham et al.), K562
Type: cell-based
Conditions: K562 cells, 96 hours after treatment, 1 μM to 100 μM; read-out: K 562 potency (IC50)
Experimental: The effect of the compounds of the invention on tumor cells was determined by the assay described by Latham et al., Oncogene 12:827-837 (1996). Tumor cells K562 (chronic myelogenous leukaemia) or DU145 (prostate cancer) were plated in 12-well dishes at a cell density of 2.5×10^4 cells well. […] When necessary, the total number of viable cells was determined by trypsinizing the wells and counting the number of viable cells, as determined by trypan blue exclusion, using a hemacytometer. […]

O=C(/C(=C\c1ccc(O)c([N+](=O)[O-])c1)SCc1ccc(Br)cc1)c1ccc(N2CCCC2)cc1: > 100 µM
COc1ccc(CS/C(=C/c2ccc(F)cc2)C(=O)c2ccc(Cl)cc2)cc1: 1 to 10 µM
CCN(CC)CCNC(=O)c1c(C)[nH]c(C=C(SCc2ccc(F)cc2)C(=O)c2ccc(C(=O)O)cc2)c1C: 50 to 100 µM
O=C(C(=Cc1ccc(F)c([N+](=O)[O-])c1)SCc1ccc(Br)cc1)c1ccc(F)cc1: ≤ 1 µM
O=C(C(=Cc1ccc(C(F)(F)F)cc1)SCc1ccc(Cl)cc1)c1ccc(Cl)cc1: 1 to 10 µM

query: Under K562 (chronic myelogenous leukaemia): IC50 value of COc1ccccc1C=C(SCc1ccc(Cl)cc1)C(=O)c1ccc(Br)cc1 ?
result: 10 to 25 µM

query: Lab note: need IC50 with K562 (chronic myelogenous leukaemia) for entry Cc1ccc(S(=O)(=O)Oc2ccc(C(=O)/C(=C\c3ccc(F)c([N+](=O)[O-])c3)SCc3ccc(F)cc3)cc2)cc1 , please look it up.
result: 1 to 10 µM

----------
Let's look at some compounds and their measured IC50.
test system: K562 (chronic myelogenous leukaemia); experiment: Effect of compounds on tumor cell lines (assay of Latham et al.), K562; type: cell-based; details: K562 cells, 96 hours after treatment, 1 μM to 100 μM; read-out: K 562 potency (IC50)

O=C(C(=Cc1ccc(O)c(C(=O)O)c1)SCc1ccc(Br)cc1)c1ccc(Br)cc1: 25 to 50 µM
O=C(C(=Cc1ccc([N+](=O)[O-])cc1)SCc1ccc(Br)cc1)c1ccc(Br)cc1: 1 to 10 µM
COc1ccc(C(=O)/C(=C\c2ccc(O)c([N+](=O)[O-])c2)SCc2ccc(Br)cc2)cc1: 10 to 25 µM
O=C(O)c1ccc(C(=O)C(=Cc2ccc(Cl)c([N+](=O)[O-])c2)SCc2ccc(Cl)cc2)cc1: ≤ 1 µM
O=C(C(=Cc1ccc(O)c([N+](=O)[O-])c1)SCc1ccccc1Cl)c1ccc(Cl)cc1: 10 to 25 µM

query: Bench note: what IC50 did O=C(C(=Cc1ccc(Cl)cc1)SCc1ccc(Cl)cc1)c1ccc(Br)cc1 show?
result: 1 to 10 µM

query: Could you share which IC50 value was measured for O=C(O)c1ccc(C(=O)/C(=C\c2ccc(F)c([N+](=O)[O-])c2)SCc2ccccc2)cc1 ?
result: ≤ 1 µM

query: // lookup IC50 for O=C(C(=Cc1ccc(C(=O)N2CCN(CCO)CC2)cc1)SCc1ccc(F)cc1)c1ccc(F)c([N+](=O)[O-])c1
result: ≤ 1 µM
